// data source = the supplement of paper PMC10724198

System: Saccharomyces cerevisiae
method_description: protein stability index of tFT-peptide fusion (C-terminal peptide) (PSI (0-1 scale)); higher = more stable (slower turnover)
reported_conditions: genetic background: wild type; temperature: 30 C
assay_readout: protein stability index
# respond with the number and nothing more

Here is how some sequences turned out for protein stability index.
PPPPPPVHPSSP    0.728
TEDGSYGESEQA    0.642
AYKGTPTCKTRR    0.689
CLSLPFSLFPLM    0.619
VQSLCGDCGCCL    0.735

May I ask what protein stability index has been recorded for `TKKKNKLRNKQE` ?
0.664

May I ask what protein stability index has been recorded for `RGPSSPTPRPAA` ?
0.77

May I ask what protein stability index has been recorded for `FCCWCVCFGYSG` ?
0.443

May I ask what protein stability index has been recorded for `RGRGRISGSWGT` ?
0.718

May I ask what protein stability index has been recorded for `LLCPSPPSDIPP` ?
0.661

May I ask what protein stability index has been recorded for `PPLSLLPSSSPH` ?
0.664

May I ask what protein stability index has been recorded for `VGGIGKGSWRWM` ?
0.647

----------
Test system: Saccharomyces cerevisiae
method_description: protein stability index of tFT-peptide fusion (C-terminal peptide) (PSI (0-1 scale)); higher = more stable (slower turnover)
reported_conditions: genetic background: cdc53-1; temperature: 37 C
Assign label 1 to entries whose protein stability index meets or exceeds 0.6; assign label 0 to the rest.

CFGFMFLLLFDV    label 0
CFCPILFPRCLA    label 1
CGVWVVVASAYR    label 0
HPLYWRCVVVLN    label 0
FRCFVLPYFGRF    label 1

Could you tell me if the measured protein stability index of `FCLMLWGAVLFL` reaches 0.6 or more?
label 0

Could you tell me if the measured protein stability index of `VFRLLALLWRFF` reaches 0.6 or more?
label 1

Could you tell me if the measured protein stability index of `CGLYNQFCLFLY` reaches 0.6 or more?
label 1

Could you tell me if the measured protein stability index of `SRPEPNGLRKLV` reaches 0.6 or more?
label 1

Could you tell me if the measured protein stability index of `YVSIWSPILWLA` reaches 0.6 or more?
label 0

----------
Each record here notes measured protein stability index.
Test system: Saccharomyces cerevisiae
method_description: protein stability index of tFT-peptide fusion (C-terminal peptide) (PSI (0-1 scale)); higher = more stable (slower turnover)
reported_conditions: genetic background: das1 deletion; temperature: 30 C
# respond with the number and nothing more

Here is how some sequences turned out for protein stability index.
VKRNKYPPRPVH [REF2 C-terminal 12 aa]    0.704
KLCTGIVWAPRV [YAR070C C-terminal 12 aa]    0.681

May I ask what protein stability index has been recorded for RVPQSRSFGNLR [NUM1 C-terminal 12 aa] ?
0.738

May I ask what protein stability index has been recorded for LEKSTNPIKKNN [VOA1 C-terminal 12 aa] ?
0.703

May I ask what protein stability index has been recorded for PIRTPDAKKPKI [BUR2 C-terminal 12 aa] ?
0.715

May I ask what protein stability index has been recorded for EDADNDNDYDHE [SAP155 C-terminal 12 aa] ?
0.677

May I ask what protein stability index has been recorded for FFMSDMNLSKEG [ATG13 C-terminal 12 aa] ?
0.752
